# PROTOCOL DESCRIPTION: NCI Yeast Anticancer Drug Screen. Data for the rad50EPP+ strain (AID 151);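 note: 0% = growth of vehicle-treated control cultures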
# RUN CONDITIONS: S. cerevisiae rad50 mutant strain, at 3.7 µM, hits give high values
Compounds without any hit were thinned out: in the full panel of roughly 79,000, 15% have a hit.
Threshold rule: growth inhibition greater than or equal to 10% is Criterion met; below that, Criterion not met.

Some entries whose results are on file:
>>> label_class("O=S(=O)(NNc1ccccc1)c1ccccc1")
"Criterion not met"
>>> label_class("O=[N+]([O-])c1ccc(S(=O)(=O)Cc2ccccc2)c([N+](=O)[O-])c1")
"Criterion met"
>>> label_class("NNc1ccccc1-c1nc2ccccc2[nH]1")
"Criterion not met"
>>> label_class("O=c1[nH]c2c([N+](=O)[O-])cccc2c2ccccc12")
"Criterion met"
>>> label_class("Cc1cc2nc3ccccc3n2c2ccccc12")
"Criterion not met"

Note: attention shifts to another entry.
Incoming: Decide: growth inhibition of `NC(N)=NS(=O)(=O)c1ccc(Nc2c3ccccc3nc3c(C(=O)NC(CO)(CO)CO)cccc23)cc1` >= 10%?
Outgoing: Criterion not met

====

Quick reference: growth inhibition of the listed items.
# PROTOCOL DESCRIPTION: NCI Yeast Anticancer Drug Screen. Data for the CLN2oe strain (AID 163);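 note: 0% = growth of vehicle-only control cultures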
# RUN CONDITIONS: S. cerevisiae CLN2oe strain, at 3.7 µM, hits give high values
Compounds without any hit were thinned out: in the full panel of roughly 79,000, 15% have a hit.
The reply should contain only the number, in %.

// solved cases for growth inhibition follow
>>> assay_result("CCCCCCCN(CCCCCCC)CC(=O)c1ccc2cc(Cl)c3ccccc3c2c1")
22
>>> assay_result("CCCCCCNCCCNc1c2cc(OC)ccc2nc2cccc([N+](=O)[O-])c12")
-13
>>> assay_result("CCN(CC)CCCNc1ccc([N+](=O)[O-])c2nc3ccc(OC)cc3c(NCCCN(CC)CC)c12")
-9
>>> assay_result("CCC[CH2][Sn]([CH2]CCC)([CH2]CCC)/[C](=C/[Si](C)(C)c1ccccc1)c1ccc2c(c1)OCO2")
4
>>> assay_result("CN(C)CCNc1ccc2ncn3c4ccc(O)cc4c(=O)c1c23")
1

Incoming: Specify reported growth inhibition for the compound shown: `Cc1cccc(/C=N/NC(=S)NC2CCCCC2)n1`
Outgoing: -17

Incoming: Specify reported growth inhibition for the compound shown: `CC1=NN(C(=O)c2ccccc2O)C(=O)/C1=C/c1ccco1`
Outgoing: 7

Incoming: Specify reported growth inhibition for the compound shown: `O=C1Nc2ccc(Br)cc2C1=Nc1ccc(Cl)cc1`
Outgoing: 1

Incoming: Specify reported growth inhibition for the compound shown: O=C(O)c1cc2c(cc1S(=O)(=O)O)C1C(C3C2C2(Cl)C(Cl)=C(Cl)C3(Cl)C2(Cl)Cl)C2(Cl)C(Cl)=C(Cl)C1(Cl)C2(Cl)Cl (configuration not stated)
Outgoing: -5

Incoming: Specify reported growth inhibition for the compound shown: `COc1ccc(-c2cc(-c3cc(C)cc(Cl)c3O)nc3[nH]c(=S)[nH]c(=S)c23)cc1`
Outgoing: -2

Incoming: Specify reported growth inhibition for the compound shown: CC(/C=C/c1ccc([N+](=O)[O-])o1)=N/N1CC(CN2CCOCC2)OC1=O (configuration not stated)
Outgoing: -9

Incoming: Specify reported growth inhibition for the compound shown: `Fc1cc(F)c(F)c(S)c1F`
Outgoing: -20

Incoming: Specify reported growth inhibition for the compound shown: `CN(C)N=Nc1ccc(N(C)C)cc1`
Outgoing: -5
